Read-out: urokinase plasminogen activator (uPA), PLAU (gene 5328)
testProtocol: BSK_BE3C_uPA: BioMAP Diversity Plus: BE3C Assay for urokinase plasminogen activator (uPA) Biomarker Activity (AID 2283038);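 also: uPA protein level quantified by ELISA in cell cultures; uPA read one day after compound addition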
conditions: primary human bronchial epithelial cells; actives raise or lower the signal
Activity calls are given as the source filed them. The calls were made as follows: active = hit-call score of the fitted dose curve at least 0.9, where 1 is the maximum; inactive = score below 0.9.

{"compound": "O=S(=O)(O)C(F)(F)C(F)(F)OC(F)(F)C(F)(F)F", "outcome": "inactive"}
{"compound": "O=C1OC2(c3ccc(O)cc3Oc3cc(O)ccc32)c2ccccc21", "outcome": "inactive"}
{"compound": "O=C(O)C(F)(F)OC(F)(F)C(F)(F)OC(F)(F)C(F)(F)C(F)(F)C(F)(F)F", "outcome": "inactive"}
{"compound": "OCC(F)(OC(F)(F)C(F)(OC(F)(F)C(F)(F)C(F)(F)F)C(F)(F)F)C(F)(F)F (centres undefined)", "outcome": "inactive"}

====

testedTarget: Nuclear respiratory factor 1 (Homo sapiens) (UniProt Q16656)
Sequence (Q16656 whole entry, looked up): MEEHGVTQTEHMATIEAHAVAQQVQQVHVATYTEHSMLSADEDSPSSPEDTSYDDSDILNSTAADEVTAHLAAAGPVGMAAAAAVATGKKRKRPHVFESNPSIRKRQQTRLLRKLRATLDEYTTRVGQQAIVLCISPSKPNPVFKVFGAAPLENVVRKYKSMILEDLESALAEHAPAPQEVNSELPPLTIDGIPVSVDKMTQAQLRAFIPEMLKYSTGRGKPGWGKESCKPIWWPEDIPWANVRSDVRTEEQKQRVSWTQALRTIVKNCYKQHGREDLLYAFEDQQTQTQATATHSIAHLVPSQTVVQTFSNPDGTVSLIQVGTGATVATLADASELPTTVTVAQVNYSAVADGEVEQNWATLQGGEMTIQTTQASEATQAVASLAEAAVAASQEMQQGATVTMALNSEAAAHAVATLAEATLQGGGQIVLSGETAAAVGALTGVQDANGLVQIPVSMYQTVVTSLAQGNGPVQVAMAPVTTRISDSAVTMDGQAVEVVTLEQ
testProtocol: ATG_NRF1_CIS: Attagene CIS-FACTORIAL HepG2 Assay for human Nuclear Respiratory Factor 1 (NRF1) Orphan Gene (AID 2282987)
conditions: HepG2 NRF1 cis-element reporter, Attagene multiplex; actives raise or lower the signal
Activity calls are given as the source filed them. Rule for the calls: active = hit-call score of the fitted dose curve at least 0.9, where 1 is the maximum; inactive = score below 0.9.
Possible outcomes: class 1 for active, class 0 for inactive

{"compound": "CCCCCC#CC(=O)OC", "groupLabel": "class 0"}
{"compound": "NC(N)=S", "groupLabel": "class 0"}
{"compound": "OCC=Cc1ccccc1", "groupLabel": "class 0"}
{"compound": "COc1cc(OC)c2ccc(=O)oc2c1", "groupLabel": "class 0"}
{"compound": "CCCCCCCCCCCCOC(C)=O", "groupLabel": "class 0"}
{"compound": "CC1(C)CC(N)CC(C)(CN)C1 (configuration not stated)", "groupLabel": "class 0"}
{"compound": "Nc1ccc(O)c(N)c1", "groupLabel": "class 0"}
{"compound": "CCC(CC)CO", "groupLabel": "class 0"}
{"compound": "C=C(C)C(N)=O", "groupLabel": "class 0"}
{"compound": "CC(=O)CCc1ccc(O)cc1", "groupLabel": "class 0"}
{"compound": "CCOC(=O)C=Cc1ccccc1", "groupLabel": "class 0"}
{"compound": "CCCO[Si](OCCC)(OCCC)OCCC", "groupLabel": "class 0"}
{"compound": "CC(C)C(=O)c1ccccc1", "groupLabel": "class 0"}
{"compound": "CNC(=C[N+](=O)[O-])NCCSCc1ccc(CN(C)C)o1", "groupLabel": "class 0"}
{"compound": "CCC(C)C1CCCCC1=O (configuration not stated)", "groupLabel": "class 0"}
{"compound": "CC(C)Cc1ccc(C(C)C(=O)O)cc1 (configuration not stated)", "groupLabel": "class 0"}
{"compound": "CCC(=O)OCC=Cc1ccccc1", "groupLabel": "class 0"}
{"compound": "CCCCCCC(C)O (configuration not stated)", "groupLabel": "class 0"}
{"compound": "CCCCCCC(O)CCOC(C)=O (configuration not stated)", "groupLabel": "class 0"}
{"compound": "CCCCOCC(C)OCC(C)O (configuration not stated)", "groupLabel": "class 0"}
{"compound": "CC(CO)c1ccccc1 (configuration not stated)", "groupLabel": "class 0"}
{"compound": "CC(C)(O)CCc1ccccc1", "groupLabel": "class 0"}
{"compound": "CCCCCCCCCC(=O)OCC", "groupLabel": "class 0"}
{"compound": "CCOC(=O)C(=O)OCC", "groupLabel": "class 0"}
{"compound": "CC(C)C(=O)OCC=Cc1ccccc1", "groupLabel": "class 0"}
{"compound": "C1CCCNCC1", "groupLabel": "class 0"}
{"compound": "CCCCCCCCCCOC(=O)c1ccccc1C(=O)OCCCCCCCC", "groupLabel": "class 0"}
{"compound": "CC1COC(=O)O1 (configuration not stated)", "groupLabel": "class 0"}
{"compound": "O=C1CCC(=O)N1", "groupLabel": "class 0"}
{"compound": "Nc1ccn([C@H]2CC[C@@H](CO)O2)c(=O)n1", "groupLabel": "class 0"}
{"compound": "O=Cc1ccccc1O", "groupLabel": "class 0"}
{"compound": "COC(=O)C(C)Oc1ccc(Oc2ncc(C(F)(F)F)cc2Cl)cc1 (configuration not stated)", "groupLabel": "class 1"}
{"compound": "COc1ccc(OC)cc1", "groupLabel": "class 0"}
{"compound": "C[C@]12CC[C@@H]3c4ccc(O)cc4CC[C@H]3[C@@H]1CC[C@@H]2O", "groupLabel": "class 0"}
{"compound": "S=c1[nH][nH]c(=S)s1", "groupLabel": "class 0"}
{"compound": "COc1ccc(N)c(C)c1", "groupLabel": "class 0"}
{"compound": "O=C1CCCCCCCCCCCC(=O)OCCO1", "groupLabel": "class 0"}
{"compound": "CC(O)CNCC(C)O (configuration not stated)", "groupLabel": "class 0"}
{"compound": "C=CCCCCCCCCC(=O)OCC", "groupLabel": "class 0"}
{"compound": "CCCCCC(=O)O[C@]1(C(C)=O)CC[C@H]2[C@@H]3CCC4=CC(=O)CC[C@]4(C)[C@H]3CC[C@@]21C", "groupLabel": "class 1"}
{"compound": "Cc1cc(O)c(C)c(C)c1O", "groupLabel": "class 0"}
{"compound": "O=C(O)c1ccc(C(=O)O)c(C(=O)O)c1", "groupLabel": "class 0"}
{"compound": "CCCCCCCCOS(=O)(=O)O", "groupLabel": "class 0"}
{"compound": "CC(O)COCC(C)O (configuration not stated)", "groupLabel": "class 0"}
{"compound": "CCCC1CCC(=O)CC1", "groupLabel": "class 0"}
{"compound": "CC(=O)CC(C)(C)C1CCCCC1", "groupLabel": "class 0"}
{"compound": "CC1=CC[C@@H](C(C)(C)O)CC1", "groupLabel": "class 0"}
{"compound": "C=CC(=O)OCC(CO)(COC(=O)C=C)COC(=O)C=C", "groupLabel": "class 0"}
{"compound": "CCCCN(CCO)CCO", "groupLabel": "class 0"}
{"compound": "CC(C)(C)c1cccc(O)c1", "groupLabel": "class 0"}
{"compound": "OCCN1CCOCC1", "groupLabel": "class 0"}
{"compound": "CCCCOCCOCCO", "groupLabel": "class 0"}
{"compound": "O=C(C=Cc1ccccc1)OCCCc1ccccc1", "groupLabel": "class 0"}
{"compound": "CCC(=O)OC/C=C(\\C)CCC=C(C)C", "groupLabel": "class 0"}
{"compound": "CN(C)C(=O)Nc1ccccc1", "groupLabel": "class 0"}
{"compound": "CCOC(=O)CC(C)C", "groupLabel": "class 0"}
{"compound": "CN1CCc2cccc3c2[C@H]1Cc1ccc(O)c(O)c1-3", "groupLabel": "class 1"}
